Ref: patent US7056679

Target: T1, DGI-2 polypeptide (UniProt Q15004 1-111, limits assumed)
T1 construct: Soluble recombinant protein coated at 500 ng/well; vector tag of pIVEX2.3-MCS not described for this construct; also called KIAA0101
T1 sequence (looked up): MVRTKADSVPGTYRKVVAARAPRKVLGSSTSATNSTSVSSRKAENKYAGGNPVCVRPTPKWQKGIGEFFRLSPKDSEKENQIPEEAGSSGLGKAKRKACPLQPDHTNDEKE
Experiment: phage ELISA
Classify as follows. Reported DGI-2 (OD) greater than or equal to 5 OD: yes. Reported DGI-2 (OD) below: no.

Could you tell me if the measured DGI-2 (OD) of FRVALLSVSAGPCEGSGNTAAAGAPVPYPDPLEPRP [DGI-2-20F-PP-H7] reaches 5 OD or more?
no

Could you tell me if the measured DGI-2 (OD) of RQRSGGRWVVDRVTRVASTSPAAAGAPVPYPDPLEPRP [DGI-2-20F-PP-B12] reaches 5 OD or more?
no

Could you tell me if the measured DGI-2 (OD) of DGI-2-40F-4-E62 (peptide) peptide: TCWHRGLNVVRYSVNFGVRDARLTTQGMAWFPPGCGQGCVAAAGAPVPYPDPLEPRP reaches 5 OD or more?
no

Could you tell me if the measured DGI-2 (OD) of GHGAGDWAAELFVCPVAFLTGFAWRAAAGAPVPYPDPLEPRP [DGI-2-20R-4-H2] reaches 5 OD or more?
yes

Could you tell me if the measured DGI-2 (OD) of SWACGLLWPGECGSQVARRGAAAGAPVPYPDPLEPRP [DGI-2-20R-3-D127] reaches 5 OD or more?
yes
